Quick reference for pIC50 among some compounds
Target: human CYP1A2 (Homo sapiens)
Sequence (P05177 whole entry): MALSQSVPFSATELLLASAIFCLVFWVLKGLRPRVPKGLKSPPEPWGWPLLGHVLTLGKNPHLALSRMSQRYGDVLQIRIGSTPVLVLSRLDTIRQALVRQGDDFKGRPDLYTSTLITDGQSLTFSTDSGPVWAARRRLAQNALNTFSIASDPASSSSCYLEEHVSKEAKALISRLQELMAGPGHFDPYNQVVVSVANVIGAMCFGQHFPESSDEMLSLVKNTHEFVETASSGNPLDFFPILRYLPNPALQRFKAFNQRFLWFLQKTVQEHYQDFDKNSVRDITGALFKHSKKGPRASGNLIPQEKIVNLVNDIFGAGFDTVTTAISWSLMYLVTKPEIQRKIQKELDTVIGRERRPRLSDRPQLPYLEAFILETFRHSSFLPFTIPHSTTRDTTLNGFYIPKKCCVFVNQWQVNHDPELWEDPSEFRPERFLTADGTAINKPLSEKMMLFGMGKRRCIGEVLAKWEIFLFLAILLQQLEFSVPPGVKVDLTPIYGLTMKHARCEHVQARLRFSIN
Assay: biochemical
Details: CYP1A2 IC50
pIC50: −log10 of the molar value. Structures can show the parent of a compound that is named as a salt.
VALUE_TYPE: pIC50

>>> recorded_result("c1ccc2nc(N3CCNCC3)ccc2c1 [Quipazine maleate]")
6.02
>>> recorded_result("Cc1cccc(Cc2c[nH]cn2)c1C [Detomidine hydrochloride]")
5.94
>>> recorded_result("c1ccc2cc3c(ccc4ccccc43)cc2c1 [Benz(a)anthracene]")
6.07
>>> recorded_result("c1ccc2c(c1)-c1cccc3cccc-2c13 [Fluoranthene]")
6.14
>>> recorded_result("COP(=S)(OC)Oc1ccc(SC)c(C)c1 [Fenthion]")
5.60
>>> recorded_result("CC[n+]1c(-c2ccccc2)c2cc(N)ccc2c2ccc(N)cc21 [Ethidium bromide]")
5.02
>>> recorded_result("c1cc2ccc3ccc4ccc5cccc6c(c1)c2c3c4c56 [Benzo(g,h,i)perylene]")
6.80
>>> recorded_result("O=S1(=O)OCC2C(CO1)C1(Cl)C(Cl)=C(Cl)C2(Cl)C1(Cl)Cl (stereo not drawn) [Endosulfan sulfate]")
4.32
>>> recorded_result("CCCCC(CC)CNCC(CC)CCCC (stereo not drawn) [2,2'-Diethylhexylamine]")
4.32
>>> recorded_result("Oc1cc(Cl)ccc1Oc1ccc(Cl)cc1Cl [Triclosan]")
4.68
>>> recorded_result("[O-][n+]1ccccc1SSc1cccc[n+]1[O-] [Dipyrithione]")
5.49
>>> recorded_result("N#Cc1c2ccccc2cc2ccccc12 [9-Cyanoanthracene]")
6.66
>>> recorded_result("c1cc2ccc3cccc4ccc(c1)c2c34 [Pyrene]")
6.19
>>> recorded_result("CCOP(=S)(OCC)Oc1cc(-c2ccccc2)on1 [Isoxathion]")
5.41
>>> recorded_result("CCOP(=S)(OCC)SCSP(=S)(OCC)OCC [Ethion]")
4.71
>>> recorded_result("CCN(CCCc1ccccc1)CCCc1ccccc1 [Alverine citrate]")
5.00
>>> recorded_result("CCOP(=S)(OCC)O/N=C(\\C#N)c1ccccc1 [Phoxim]")
6.00
>>> recorded_result("O=C1C2(Cl)C3(Cl)C4(Cl)C(Cl)(Cl)C5(Cl)C3(Cl)C1(Cl)C5(Cl)C24Cl (stereo not drawn) [Kepone]")
4.44
>>> recorded_result("CCOC(=O)N(C)C(=O)CSP(=S)(OCC)OCC [Mecarbam]")
5.54
>>> recorded_result("CCOP(=S)(OCC)Oc1cc(C)nc(C(C)C)n1 [Diazinon]")
5.15
>>> recorded_result("CCN(CC)C(=O)[C@@H]1C=C2c3cccc4[nH]cc(c34)C[C@H]2N(C)C1 [Lysergide]")
3.82
